Tested on: IL-18 production from LPS-pretreated CD14^+ cells
TEST_SUMMARY: ATP stimulation-induced IL-18 production from LPS-pretreated CD14^+ cells
Assay type: cell-based, human
CONDITION_NOTES: Homo sapiens; CD14^+ cells (LPS-pretreated), ATP 5 mM
Counter-ions that a name gives are not always drawn.
PARAMETER: IC50 (nM)
State the answer as a number, implicitly in nM.

Sample CCOC(=O)[C@H](Cc1ccccc1)NC(=O)c1cc(Cl)c(OCCN2CCN(C)CC2)c(Cl)c1O [JTE-607, dihydrochloride] ; IC50 observed: 2.4

====

System: TNF-α production
TEST_SUMMARY: CRS toxicity evaluation system using CAR-T cells: TNF-α
Format: cell-based, human
CONDITION_NOTES: Homo sapiens, Monocyte; CAR-T cells, target cells and monocytes, 72 hours
Structures can show the parent of a compound that is named as a salt.
PARAMETER: pIC50
Units for pIC50: none; it is -log10 of a concentration expressed in mol/L.

Sample CCOC(=O)[C@H](Cc1ccccc1)NC(=O)c1cc(Cl)c(OCCN2CCN(C)CC2)c(Cl)c1O [JTE-607, dihydrochloride] ; pIC50 observed: 6.38

====

Tested on: TNF-α production from CD8^+ T cells
TEST_SUMMARY: T-cell stimulation bead-induced TNF-α production in CD8^+ T cells
Format: cell-based, human
CONDITION_NOTES: CD3/CD28 stimulation, 3 days, dihydrochloride
Protocol: Cryopreserved PBMCs were quickly thawed in a 37° C. thermostat and added to a tube containing medium. After centrifugation (at room temperature at 300 g for 10 minutes) to remove the supernatant, the cells were suspended in the medium, a portion of which was then mixed with a trypan blue solution to count the number of viable cells. […] The culture supernatants collected in 1.2.1 were quantified for TNF-α using Human TNF-α DuoSet ELISA.
Where a name gives a salt, the structure may show the parent alone.
PARAMETER: IC50 (nM)
State the answer as a number, implicitly in nM.

Sample CCOC(=O)[C@H](Cc1ccccc1)NC(=O)c1cc(Cl)c(OCCN2CCN(C)CC2)c(Cl)c1O [JTE-607, dihydrochloride] ; IC50 observed: 231

====

Tested on: IFN-γ production from CD8^+ T cells
TEST_SUMMARY: T-cell stimulation bead-induced IFN-γ production in CD8^+ T cells
Assay type: cell-based, human
CONDITION_NOTES: CD3/CD28 stimulation, 3 days
PARAMETER: IC50 (nM)
State the answer as a number, implicitly in nM.

Sample C[C@]12C=CC(=O)C=C1CC[C@@H]1[C@@H]2[C@@H](O)C[C@@]2(C)[C@H]1CC[C@]2(O)C(=O)CO ; IC50 observed: 149

====

Test system: TNF-α production from CD8^+ T cells
TEST_SUMMARY: T-cell stimulation bead-induced TNF-α production in CD8^+ T cells
Assay type: cell-based, human
CONDITION_NOTES: CD3/CD28 stimulation, 3 days
PARAMETER: pIC50
Units for pIC50: none; it is -log10 of a concentration expressed in mol/L.

Sample C[C@]12C=CC(=O)C=C1CC[C@@H]1[C@@H]2[C@@H](O)C[C@@]2(C)[C@H]1CC[C@]2(O)C(=O)CO ; pIC50 observed: 7.46

====

Tested on: IL-6 production in CD4^+ T cell-depleted PBMCs
TEST_SUMMARY: T-cell stimulation bead- and LPS stimulation-induced CRS toxicity evaluation system in CD4^+ T cell-depleted PBMCs: IL-6
Type: cell-based, human
CONDITION_NOTES: Homo sapiens, 72 h, CD3/CD28 + LPS, 3 days
Where a name gives a salt, the structure may show the parent alone.
PARAMETER: IC50 (nM)
State the answer as a number, implicitly in nM.

Hey, IL-6 production in CD4^+ T cell-depleted PBMCs data for CCOC(=O)[C@H](Cc1ccccc1)NC(=O)c1cc(Cl)c(OCCN2CCN(C)CC2)c(Cl)c1O [JTE-607, dihydrochloride] : IC50 came out at 42.2

====

What IC50 was measured for each of the following?
Tested on: IL-6 production from PBMCs
TEST_SUMMARY: LPS stimulation-induced IL-6 production in PBMCs
Assay type: cell-based
CONDITION_NOTES: Homo sapiens, PBMC, 72 h, LPS 3 ng/mL, 3 days
Structures can show the parent of a compound that is named as a salt.
State the answer as a number, implicitly in nM.

Sample CCOC(=O)[C@H](Cc1ccccc1)NC(=O)c1cc(Cl)c(OCCN2CCN(C)CC2)c(Cl)c1O [JTE-607, dihydrochloride] ; IC50 observed: 17.7

Sample C[C@]12C=CC(=O)C=C1CC[C@@H]1[C@@H]2[C@@H](O)C[C@@]2(C)[C@H]1CC[C@]2(O)C(=O)CO ; IC50 observed: 176
